Target: T1, cTnI quality control product recombinant protein (human, UniProt P19429 2-210, limits assumed)
T1 construct: treated as the same molecule; also called cTnI antigen; cardiac troponin I
T1 sequence (P19429 2-210 limits assumed): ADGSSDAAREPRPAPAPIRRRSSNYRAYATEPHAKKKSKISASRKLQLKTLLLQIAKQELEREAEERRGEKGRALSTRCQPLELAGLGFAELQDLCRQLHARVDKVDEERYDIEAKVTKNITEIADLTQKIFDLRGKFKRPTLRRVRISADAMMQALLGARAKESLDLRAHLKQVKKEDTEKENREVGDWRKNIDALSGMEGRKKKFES
Assay: AMC sensor, antibody immobilised, cTnI in solution
Field: class. Source value: kon. Ranges: low band (below 40000 M⁻¹ s⁻¹), middle band (40000 M⁻¹ s⁻¹ to below 60000 M⁻¹ s⁻¹), high band (60000 M⁻¹ s⁻¹ or more)

binder="Mutation 1-5 (antibody, V domains shown, Built as m8) VH: EVQLQQSGPELVKPGASVKMSCKASGYTFTLYVIHWVKQKPGQGLEWIGYIQPYIDGTKYNEKFKGKATLTVDKSSSTAFMELSSLTSEDSAVYYCARSGYGGYGLAWLAYWGQGTLVTVSA VL: QAVVIQESALTTSPGETVTLTCRSSTGAATTSNYANWVQEKPDHLFTGLIGGSQNRAPGVPARFSGSLIGDKAALTITGAQTEDEAIYFCALVYSNHWVFGGGTKLTVLG" class="low band"
binder="Mutation 1-28 (antibody, V domains shown, Built as m8) VH: EVQLQQSGPELVKPGASVKMSCKASGYTFTLYVLHWVKQKPGQGLEWIGYIYPYLDGTKYNEKFKGKATLTVDKSSSTAFMELSSLTSEDSAVYYCARSGYGNYGLAWLAYWGQGTLVTVSA VL: QAVVIQESALTTSPGETVTLTCRSSTGAATTSQYANWVQEKPDHLFTGLIGGSNNRAPGVPARFSGSLIGDKAALTITGAQTEDEAIYFCALVYSNQWVFGGGTKLTVLG" class="high band"
binder="Mutation 1-44 (antibody, V domains shown, Built as m8) VH: EVQLQQSGPELVKPGASVKMSCKASGYTFTIYVIHWVKQKPGQGLEWIGYIQPYIDGTKYNEKFKGKATLTVDKSSSTAFMELSSLTSEDSAVYYCARSGYGGYGLAWLAYWGQGTLVTVSA VL: QAVVIQESALTTSPGETVTLTCRSSTGAATTSNYANWVQEKPDHLFTGLIGGSNNRAPGVPARFSGSLIGDKAALTITGAQTEDEAIYFCALVYSNNWVFGGGTKLTVLG" class="low band"
binder="Mutation 1-15 (antibody, V domains shown, Built as m8) VH: EVQLQQSGPELVKPGASVKMSCKASGYTFTLYVVHWVKQKPGQGLEWIGYINPYIDGTKYNEKFKGKATLTVDKSSSTAFMELSSLTSEDSAVYYCARSGYGQYGLAWLAYWGQGTLVTVSA VL: QAVVIQESALTTSPGETVTLTCRSSTGAVTTSNYANWVQEKPDHLFTGLIGGSQNRAPGVPARFSGSLIGDKAALTITGAQTEDEAIYFCALVYSNNWVFGGGTKLTVLG" class="high band"
binder="Mutation 1-31 (antibody, V domains shown, Built as m8) VH: EVQLQQSGPELVKPGASVKMSCKASGYTFTIYVLHWVKQKPGQGLEWIGYINPYIDGTKYNEKFKGKATLTVDKSSSTAFMELSSLTSEDSAVYYCARSGYGNYGLAWLAYWGQGTLVTVSA VL: QAVVIQESALTTSPGETVTLTCRSSTGAATTSQYANWVQEKPDHLFTGLIGGSQNRAPGVPARFSGSLIGDKAALTITGAQTEDEAIYFCALVYSNNWVFGGGTKLTVLG" class="low band"
binder="Mutation 1-10 (antibody, V domains shown, Built as m8) VH: EVQLQQSGPELVKPGASVKMSCKASGYTFTLYVLHWVKQKPGQGLEWIGYIQPYLDGTKYNEKFKGKATLTVDKSSSTAFMELSSLTSEDSAVYYCARSGYGNYGLAWLAYWGQGTLVTVSA VL: QAVVIQESALTTSPGETVTLTCRSSTGAVTTSQYANWVQEKPDHLFTGLIGGSNNRAPGVPARFSGSLIGDKAALTITGAQTEDEAIYFCALVYSNQWVFGGGTKLTVLG" class="middle band"

Exercise: read the entry Mutation 1-39 (antibody, V domains shown, Built as m8) VH: EVQLQQSGPELVKPGASVKMSCKASGYTFTLYVVHWVKQKPGQGLEWIGYIQPYLDGTKYNEKFKGKATLTVDKSSSTAFMELSSLTSEDSAVYYCARSGYGQYGLAWLAYWGQGTLVTVSA VL: QAVVIQESALTTSPGETVTLTCRSSTGAVTTSNYANWVQEKPDHLFTGLIGGSQNRAPGVPARFSGSLIGDKAALTITGAQTEDEAIYFCALVYSNQWVFGGGTKLTVLG and state which class it falls under.
middle band

# bin label for Mutation 1-35 (antibody, V domains shown, Built as m8) VH: EVQLQQSGPELVKPGASVKMSCKASGYTFTLYVIHWVKQKPGQGLEWIGYIQPYLDGTKYNEKFKGKATLTVDKSSSTAFMELSSLTSEDSAVYYCARSGYGGYGLAWLAYWGQGTLVTVSA VL: QAVVIQESALTTSPGETVTLTCRSSTGAATTSNYANWVQEKPDHLFTGLIGGSQNRAPGVPARFSGSLIGDKAALTITGAQTEDEAIYFCALVYSNQWVFGGGTKLTVLG
middle band

Please indicate the class for Mutation 1-36 (antibody, V domains shown, Built as m8; CDR-VL1 cell printed 'VQ', read as V/Q) VH: EVQLQQSGPELVKPGASVKMSCKASGYTFTIYVVHWVKQKPGQGLEWIGYINPYIDGTKYNEKFKGKATLTVDKSSSTAFMELSSLTSEDSAVYYCARSGYGQYGLAWLAYWGQGTLVTVSA VL: QAVVIQESALTTSPGETVTLTCRSSTGAVTTSQYANWVQEKPDHLFTGLIGGSNNRAPGVPARFSGSLIGDKAALTITGAQTEDEAIYFCALVYSNHWVFGGGTKLTVLG based on its kon.
low band
